System: diffuse large B-cell lymphoma SU-DHL-10 cell
Assay: MTT anti-proliferative assay, SU-DHL-10
Format: cell-based, human
Settings: MTT, 48 h; read-out: IC50 SU-DHL-10
Recorded IC50 for the following compounds
test.readout: IC50

>>> print(df.to_string())
                                  structure    result
0     N#C/C(=C\c1ccccc1)c1ccc(OC(F)(F)F)cc1  > 100 µM
1  CCCOc1ccc(/C=C(\C#N)c2ccc(OC(F)(F)F)cc2)cc1  > 100 µM
2  CCc1ccc(/C=C(\C#N)c2cccc(OC(F)(F)F)c2)cc1  > 100 µM
3  COc1ccc(/C=C(\C#N)c2ccc(C(F)(F)F)cc2)cc1  > 100 µM
4  COc1ccc(/C=C(\C#N)c2cccc(OC(F)(F)F)c2)cc1  > 100 µM
5  N#C/C(=C\c1ccc(F)cc1)c1cccc(OC(F)(F)F)c1   60.4 µM
6  CCN(CC)c1ccc(/C=C(\C#N)c2ccc(C(F)(F)F)cc2)cc1  > 100 µM
7  COc1cc(/C=C(\C#N)c2ccc(C(F)(F)F)cc2)cc(OC)c1OC  > 100 µM
8      N#C/C(=C\c1ccccc1)c1ccc(C(F)(F)F)cc1  > 100 µM
